Catalogue of binders with associated Anti-CD28 Fab signal in the presence of CD28
Molecular target: T1, anti-CD28 Fab (SEQ ID NOs: 202, 203)
T1 construct: biotinylated and captured on neutravidin coated plates in the phage ELISA
T1 sequence (VH, as listed by the source, chain 1 of 2): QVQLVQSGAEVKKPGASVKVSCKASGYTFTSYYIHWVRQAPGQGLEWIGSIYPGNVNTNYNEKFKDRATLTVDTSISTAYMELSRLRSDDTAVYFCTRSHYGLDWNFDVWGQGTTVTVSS
T1 sequence (VL, as listed by the source, chain 2 of 2): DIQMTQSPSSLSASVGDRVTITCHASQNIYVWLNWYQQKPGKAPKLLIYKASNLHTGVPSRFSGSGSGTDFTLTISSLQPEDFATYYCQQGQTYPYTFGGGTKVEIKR
Test: phage binding ELISA on captured Fab, competitor CD28 antigen
RESULT_TYPE: Anti-CD28 Fab signal in the presence of CD28

1. NCSAGATYPWPLCL [Phage-934]    0.07
2. NCSAGAQWPWPICL [Phage-936]    0.08
3. SCAAGAMYSWPTCL [Phage-935]    0.08
4. TCAAGAHWPWPTCF [Phage-938]    0.07
5. TCAAGANWEWPWCF [Phage-928]    0.08
6. TCSAGATYTWPWCF [Phage-941]    0.07
7. MCSAGANWPWPLCF [Phage-932]    0.07
8. TCSAGASNKLSLCL [Phage-931]    0.06
